Taken from patent US6727237B2.

- targetOfAssay: bacterial NAD synthetase enzyme (Bacillus subtilis, UniProt P08164)
- assayOverview: biochemical
- Assay type: biochemical
Recorded measurements of inhibition at 100 µM, one per entry

Example cases with answers are listed next.
Query inhibition at 100 µM on bacterial NAD synthetase enzyme (Bacillus subtilis, UniProt P08164) for COC(=O)c1cc2ccccc2n1CCCCCCCCC[n+]1ccccc1
95.4%

Here is the next molecule: COC(=O)c1cc2ccccc2n1CCCCCCCOC(=O)c1ccc[n+](C)c1
96.8%

New cases:
inhibition at 100 µM of COC(=O)c1cc2cc(OCc3ccccc3)ccc2n1CCCCCCCOC(=O)c1ccc[n+](C)c1 on bacterial NAD synthetase enzyme (Bacillus subtilis, UniProt P08164)?
71%

Same question, COC(=O)c1cc2cc(OCc3ccccc3)ccc2n1CCCCCCCCC[n+]1ccccc1 this time
93.1%

Now consider c1ccc(Oc2ccc3[nH]c(CCCC[n+]4ccccc4)cc3c2)cc1 .
86.6%

Follow-up item: C[N+](C)(C)c1cccc(C(=O)OCCCCCCCc2cc3cc(Oc4ccccc4)ccc3[nH]2)c1
98.3%

Quick one: C[n+]1cccc(CC(=O)OCCCCCCCc2cc3cc(C(=O)c4ccccc4)ccc3[nH]2)c1
100%

Repeat for the following molecule: C[n+]1cccc(CC(=O)OCCCCCCCCc2cc3cc(C(=O)c4ccccc4)ccc3[nH]2)c1
97.8%

Further, for COC(=O)c1cc2cc(OCc3ccccc3)ccc2n1CCCCC[n+]1ccccc1 ?
95.1%

Then this molecule: CCCCc1ccc2[nH]c(CCCCCC[n+]3ccccc3)cc2c1
77.2%

Similarly, CC(C)c1ccc2[nH]c(CCCCOC(=O)c3ccc([N+](C)(C)C)cc3)cc2c1 ?
93.6%

Now try CC(=O)c1ccc2[nH]c(CCCCCCCCOC(=O)c3ccc[n+](C)c3)cc2c1 .
97.7%

// query: CC(C)c1ccc2[nH]c(CCCCCCCCOC(=O)c3ccc[n+](C)c3)cc2c1
96.7%

Now the molecule C[n+]1cccc(C(=O)OCCCCCCCCn2ccc3cc(OCc4ccccc4)ccc32)c1
98.3%

Cool, now CC(C)c1ccc2[nH]c(CCCCCCCOC(=O)c3cccc([N+](C)(C)C)c3)cc2c1
93.6%

Can you handle CC(C)c1ccc2[nH]c(CCCCCCCCOC(=O)Cc3ccc[n+](C)c3)cc2c1 next?
97.8%

Proceed to C[N+](C)(C)c1ccc(CC(=O)OCCCCCCCn2ccc3cc(OCc4ccccc4)ccc32)cc1
98.4%

---

- targetOfAssay: bacterial NAD synthetase enzyme (Bacillus subtilis)
- assayOverview: biochemical
- Format: biochemical
- recordedConditions: compound at 0.05 mM
propertyMeasured: % Inhibition
Field note: include the unit after the figure.

Some solved cases for reference:
Fill blank: measured % Inhibition of the molecule COC(=O)c1cc2cc(OCc3ccccc3)ccc2n1CCCCCCCOC(=O)Cc1ccc(N(C)C)cc1 [Compound 964] is ____.
1.18%

Same question for O=C(OCCCCCCCn1ccc2ccccc21)c1cccnc1 [Compound 944] please.
2.06%

Also check COC(=O)c1cc2ccccc2n1CCCCCCCOC(=O)Cc1ccc(N(C)C)cc1 [Compound 960]
6.37%

Entry COC(=O)c1cc2ccccc2n1CCCCCCCOC(=O)c1cccnc1 [Compound 948] please
2.52%

Next entry: COC(=O)c1cc2cc(OCc3ccccc3)ccc2n1CCCCCCCCCOC(=O)Cc1ccc(N(C)C)cc1 [Compound 966]
8.25%

API: the following record is the query input.
Please report the recorded % Inhibition for COC(=O)c1cc2ccccc2n1CCCCCCCCCOC(=O)c1cccnc1 [Compound 950] .
7.32%

---

- targetOfAssay: bacterial NAD synthetase enzyme (Bacillus subtilis)
- assayOverview: biochemical
- Type: biochemical
- recordedConditions: compound at 0.1 mM (Table 314)
Classify by % Inhibition. Ranges: one = under 20%, two = from 20% up to 40%, three = 40% and over

Record Fc1cc(F)c2[nH]c(CCCCCCC[n+]3ccccc3)cc2c1 [Compound 304] — which class?
two

How about FC(F)(F)c1ccc2cc(CCCC[n+]3ccccc3)[nH]c2c1 [Compound 715] ?
two

Now give it for c1ccc(C(c2ccccc2)(c2ccccc2)c2ccc3[nH]c(CCCC[n+]4ccccc4)cc3c2)cc1 [Compound 337] too.
two

Continuing:
Exam item: assign CC(C)c1ccc2[nH]c(CCCCCC[n+]3ccccc3)cc2c1 [Compound 321] to the correct category.
two

Let us now turn to c1ccc(C(c2ccccc2)(c2ccccc2)c2ccc3[nH]c(CCCC[n+]4ccc5ccccc5c4)cc3c2)cc1 [Compound 553]
three

Same again, this time with CN(C)c1ccc(CC(=O)OCCCCCCCCCn2ccc3cc([N+](=O)[O-])ccc32)cc1 [Compound 853]
three

Let us now turn to CCCCc1ccc2[nH]c(CCC[n+]3ccccc3)cc2c1 [Compound 312]
one

Try this compound next: COC(=O)c1cc2cc(OCc3ccccc3)ccc2n1CCCCCCCCOC(=O)Cc1ccc([N+](C)(C)C)cc1 [Compound 989]
three

Try COC(=O)c1ccc2[nH]c(CCCC[n+]3cccc4ccccc43)cc2c1 [Compound 487] next.
one

Try COc1ccc2[nH]c(CCCCC[n+]3ccccc3)cc2c1 [Compound 374] next.
two

Same question for O=[N+]([O-])c1ccc2[nH]c(CCCCCC[n+]3ccccc3)cc2c1 [Compound 333] please.
two

Do the same for Cc1ccc2[nH]c(CCCC[n+]3ccccc3)cc2c1 [Compound 295] please
two

Proceed to COc1ccc2[nH]c(CCCCCC[n+]3ccccc3)cc2c1 [Compound 375]
three

Moving on to c1ccc(Oc2ccc3[nH]c(CCCCCCC[n+]4ccccc4)cc3c2)cc1 [Compound 352]
two

---

- targetOfAssay: bacterial NAD synthetase enzyme (Bacillus subtilis)
- Sequence (P08164 2-272 limits assumed): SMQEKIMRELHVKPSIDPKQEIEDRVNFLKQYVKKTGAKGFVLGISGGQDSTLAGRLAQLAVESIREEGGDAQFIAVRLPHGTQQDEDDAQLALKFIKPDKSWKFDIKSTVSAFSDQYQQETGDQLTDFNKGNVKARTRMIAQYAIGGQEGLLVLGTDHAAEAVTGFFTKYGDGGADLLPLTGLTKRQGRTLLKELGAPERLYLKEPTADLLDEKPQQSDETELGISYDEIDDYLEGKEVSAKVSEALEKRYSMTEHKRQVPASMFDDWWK
- assayOverview: biochemical
- Assay type: biochemical
- recordedConditions: compound at 0.2 mM (Table 312B)
Property: % Inhibition; scope: individual molecules
Respond numerically; units are % and should not be typed.

Recorded % Inhibition, per entry:
Param readout = % Inhibition; param system = bacterial NAD synthetase enzyme (Bacillus subtilis); param query = COc1cccc(OCCCCCCCCOC(=O)Cc2ccc([N+](C)(C)C)cc2)c1 [Compound 1077] ; response: value
73

# iterate: O=C(OCCCCCCCCOc1ccc([N+](=O)[O-])cc1)c1cccnc1 [Compound 995]
27

Now the same for C[N+](C)(C)c1ccc(CC(=O)OCCCCCCCCOc2ccccc2N2CCOCC2)cc1 [Compound 1093]
66

Can you check CN(C)c1ccc(CC(=O)OCCCCCCCCOc2ccccc2N2CCOCC2)cc1 [Compound 1047] next?
45

---
Return % Inhibition measured with bacterial NAD synthetase enzyme (Bacillus subtilis) given this molecule: CN(C)c1ccc(CC(=O)OCCCCCCCCOc2cccc(N3CCOCC3)c2)cc1 [Compound 1045]
14

Now the same for COc1ccccc1OCCCCCCCCOC(=O)Cc1ccc(N(C)C)cc1 [Compound 1039]
30

Please give the result for CN(C)c1ccc(CC(=O)OCCCCCCCCOc2ccc(C(=O)c3ccccc3)cc2)cc1 [Compound 1040] too.
3

And then CC(=O)c1ccc(OCCCCCCCCOC(=O)c2ccc[n+](C)c2)cc1 [compound 1058] , what is it?
18

# iterate: CN(C)c1ccc(CC(=O)OCCCCCCCCOc2ccc(C=CC(=O)c3ccccc3)cc2)cc1 [Compound 1034]
30

Item: C[n+]1cccc(C(=O)OCCCCCCCCOc2ccccc2[N+](=O)[O-])c1 [compound 1055]
46

Do the same for C[n+]1cccc(C(=O)OCCCCCCCCOc2ccc(N3C(=O)c4ccccc4C3=O)cc2)c1 [compound 1071] please
55

Quick one: C[N+](C)(C)c1ccc(CC(=O)OCCCCCCCCOc2ccc([N+](=O)[O-])cc2)cc1 [Compound 1073]
78

COc1cccc(OCCCCCCCCOC(=O)c2ccc[n+](C)c2)c1 [compound 1057] ?
59

---

- targetOfAssay: bacterial NAD synthetase enzyme (Bacillus subtilis)
- assayOverview: biochemical
- Assay type: biochemical
IC50 values for the molecules below.
Expressed in µM, but write only the number.

If you can, please state the reported IC50 value of CC(C)c1ccc2[nH]c(CCCCCCCCOC(=O)c3ccc([N+](C)(C)C)cc3)cc2c1 [Compound 891] .
80

What about this molecule? C[n+]1cccc(CC(=O)OCCCCCCCCc2cc3cc(C(=O)c4ccccc4)ccc3[nH]2)c1 [Compound 942]
75

Now the same for C[N+](C)(C)c1ccc(CC(=O)OCCCCCCCCOc2cccc([N+](=O)[O-])c2)cc1 [Compound 1085]
138

Repeat with CCCCc1ccc2[nH]c(CCCCCC[n+]3ccccc3)cc2c1 [Compound 315]
100

***
Fill blank: measured IC50 of the molecule C[n+]1cccc(C(=O)OCCCCCn2ccc3cc(OCc4ccccc4)ccc32)c1 [Compound 766] is ____.
65

Next entry: CC(C)c1ccc2[nH]c(CCCCCCCCOC(=O)c3ccc[n+](C)c3)cc2c1 [Compound 921]
25

Repeat for the following molecule: C[N+](C)(C)c1ccc(CC(=O)OCCCCCCCCCn2ccc3ccccc32)cc1 [Compound 982]
60
